Tested on: Wild type
Assay: S. aureus survival, RN4220 and DeltatarO strains – OD600, teichoic acid synthesis inhibitors, primary screen (AID 463173)
Conditions: S. aureus RN4220 wild type/DeltatarO growth, OD600, 18 h, screened at 18.75 µg/mL (by protocol)
Out of some 52,000 compounds screened, about 1,700 (3.3%) were called active. Cut-off read from the data, not from the text of the source: active = survival mostly below about 52% (no sharp cut-off); inactive = mostly above about 56%. The sample holds actives, similar compounds and a random draw of the others, so the mix is not that of the screen.
A correct response names exactly one class from active, inactive

Examples with answers:
For this molecule, state the assay outcome: "CCCCn1c(C)nc2ccccc21"
inactive

For this molecule, state the assay outcome: "CCc1ccc(Cn2c(CNS(=O)(=O)c3ccc(Cl)s3)nc3cccnc32)cc1"
inactive

For this molecule, state the assay outcome: "Cc1ccc(CNC(=O)Cc2c(C)c3cc4c(C)coc4cc3oc2=O)cc1"
inactive

For this molecule, state the assay outcome: "CCCCn1c(CCCNC(=O)c2cccc(C)c2)nc2ccccc21"
inactive

For this molecule, state the assay outcome: "CCc1ccc(Cn2c(CNS(=O)(=O)c3ccc(F)c(Cl)c3)nc3cccnc32)cc1"
active

For this molecule, state the assay outcome: CCCCCn1c(C(C)NC(=O)c2ccccc2)nc2ccccc21 (stereo unspecified)
inactive

For this molecule, state the assay outcome: Cc1ccc(S(=O)(=O)N2CCN(C(=O)CN3CCOCC3)C2C(C)C)cc1 (stereo unspecified)
inactive

For this molecule, state the assay outcome: "Cc1ccc(Cn2c(CNC(=O)CCc3ccccc3)nc3cccnc32)cc1"
inactive

More entries:
For this molecule, state the assay outcome: "O=S(=O)(NCc1nc2cccnc2n1Cc1ccc(F)cc1)c1ccc(Cl)s1"
active

For this molecule, state the assay outcome: "O=C(CCc1ccccc1)NCc1nc2cccnc2n1Cc1ccc(F)cc1"
active

For this molecule, state the assay outcome: "Cc1ccc(Cn2c(CNS(=O)(=O)c3ccc(Cl)s3)nc3cccnc32)cc1"
inactive

====

System: Wild type
Assay: S. aureus survival, RN4220 and DeltatarO strains – OD600, teichoic acid synthesis inhibitors, primary screen (AID 463173)
Details: S. aureus RN4220 wild type/DeltatarO growth, OD600, 18 h, screened at 18.75 µg/mL (by protocol)
Screen size: about 52,000 compounds; about 1,700 (3.3%) were called active. Rule as the data show it: active = survival mostly below about 52% (no sharp cut-off); inactive = mostly above about 56%. For the sample, actives were picked, then their nearest neighbours and some compounds at random.
A correct response names exactly one class from Y (active), N (inactive)

Examples with answers:
For this compound, state the assay outcome: "COCCNC(=O)CSc1c2c(nc3cc(Cl)ccc13)CCCC2"
N

For this compound, state the assay outcome: CCC(C)NC(=O)CSc1c2c(nc3cc(Cl)ccc13)CCCC2 (configuration not stated)
N

For this compound, state the assay outcome: "CC1CCN(C(=O)CSc2c3c(nc4cc(Cl)ccc24)CCCC3)CC1"
Y

For this compound, state the assay outcome: "CCOc1ccc(C(=O)Nc2ccc(-c3cc4ccccc4oc3=O)cc2)cc1Br"
N

More entries:
For this compound, state the assay outcome: "CC1CCN(CC2CCN(C(=O)NCc3ccc(F)cc3)CC2)CC1"
N

For this compound, state the assay outcome: "Cc1cc(NC(=O)c2oc3c(c2C)-c2[nH]ncc2CC3)ccc1Br"
Y

For this compound, state the assay outcome: CCC(Cc1ccccc1)NC(=O)c1csc2c1CCCCC2 (configuration not stated)
N

For this compound, state the assay outcome: CC(CNC(=O)c1csc2c1CCCCC2)c1ccccc1 (configuration not stated)
Y

====

System: Wild type
Test: S. aureus survival, RN4220 and DeltatarO strains – OD600, teichoic acid synthesis inhibitors, primary screen (AID 463173)
Conditions: S. aureus RN4220 wild type/DeltatarO growth, OD600, 18 h, hits give low values, screened at 18.75 µg/mL (by protocol)
Out of some 52,000 compounds screened, about 1,700 (3.3%) were called active. The list comes from a sample in which actives are over-represented; it also holds close analogues and randomly drawn compounds.
PARAMETER: survival (%)
Could you give me the number in %? Just the number is fine.

Answered cases to consult:
For "CCCCc1nn2c(=O)cc(COC(=O)c3ccccc3C)nc2s1" , write its survival.
72

For "CCOC(=O)c1[nH]c(C)c(CCC(=O)Nc2c(C)cc(C)cc2C)c1C" , write its survival.
127

Now turn to the next compound.
For "CCOc1ccc(C(=O)Nc2cccc(C(=O)OCc3cc(=O)n4nc(C5CC5)sc4n3)c2)cc1" , write its survival.
51

====

System: Wild type
Test: S. aureus survival, RN4220 and DeltatarO strains – OD600, teichoic acid synthesis inhibitors, primary screen (AID 463173)
Details: S. aureus RN4220 wild type/DeltatarO growth, OD600, 18 h, hits give low values, screened at 18.75 µg/mL (by protocol)
Among all 52,000 compounds or so, about 1,700 (3.3%) were called active. The entries come from a sample that favours actives as a whole.
survival by entry:
Could you give me the number in %? Just the number is fine.

Give survival for this entry on Wild type: Cc1ccc(OCCCn2c(C3CC(=O)N(c4cccc(Cl)c4)C3)nc3ccccc32)c(C)c1 (stereo not given)
90

Give survival for this entry on Wild type: "COc1ccc(-n2c(SCC(=O)N3CCC(C)CC3)nc3c([nH]c4ccccc43)c2=O)cc1"
79

Give survival for this entry on Wild type: "Cc1ccc(NC(=O)NCCOCCn2c(=O)oc3ccccc32)c(C)c1"
88

Give survival for this entry on Wild type: Cc1ccc(C)c(OCCn2c(C3CC(=O)N(Cc4ccc(F)cc4)C3)nc3ccccc32)c1 (stereo not given)
-16

Give survival for this entry on Wild type: NC1=NC(c2cccc(Cl)c2)n2c(nc3ccccc32)N1 (stereo not given)
97

Now turn to the next compound.
Give survival for this entry on Wild type: CCc1ccccc1N1CC(c2nc3ccccc3n2CCCCOc2ccccc2OC)CC1=O (stereo not given)
93

====

Tested on: Wild type
Experiment: S. aureus survival, RN4220 and DeltatarO strains – OD600, teichoic acid synthesis inhibitors, primary screen (AID 463173)
Settings: S. aureus RN4220 wild type/DeltatarO growth, OD600, 18 h, hits give low values, screened at 18.75 µg/mL (by protocol)
Among all 52,000 compounds or so, about 1,700 (3.3%) were called active. For the sample, actives were picked, then their nearest neighbours and some compounds at random.
Under this convention, 1 denotes survival strictly below 90% and 0 denotes survival at or above 90%.

Examples with answers:
Could you please tell me whether survival recorded for "CCOC(=O)c1ccc(NC(=O)CN2C(=O)c3cccnc3Sc3ccccc32)cc1" is less than 90%?
1

Could you please tell me whether survival recorded for "COc1ccc(NC(=O)c2ccc(CNS(=O)(=O)c3ccc4c(c3)C(C)(C)C(=O)N4C)cc2)cc1" is less than 90%?
0

Could you please tell me whether survival recorded for "COC(=O)c1ccccc1NC(=O)c1ccc(-c2nc(COc3ccccc3)c(C)o2)cc1" is less than 90%?
0

More entries:
Could you please tell me whether survival recorded for "Cc1ccc(NC(=O)Cn2c(=O)n(Cc3ccccc3)c(=O)c3sc4ccccc4c32)cc1" is less than 90%?
0

Could you please tell me whether survival recorded for "Cc1ccc2c(c1)c(=O)c(C(=O)c1ccncc1)cn2CC(=O)Nc1c(C)cccc1C" is less than 90%?
1

====

Test system: Wild type
Assay: S. aureus survival, RN4220 and DeltatarO strains – OD600, teichoic acid synthesis inhibitors, primary screen (AID 463173)
Conditions: S. aureus RN4220 wild type/DeltatarO growth, OD600, 18 h, screened at 18.75 µg/mL (by protocol)
Out of some 52,000 compounds screened, about 1,700 (3.3%) were called active. Cut-off read from the data, not from the text of the source: active = survival mostly below about 52% (no sharp cut-off); inactive = mostly above about 56%. The full list was thinned out, with actives kept by preference.
A correct response names exactly one class from yes (1) (active), no (0) (inactive)

For this compound, state the assay outcome: "O=C(NCCCN1CCN(c2ccccc2F)CC1)c1cc2c(s1)-c1ccccc1OC2"
yes (1)

More entries:
For this compound, state the assay outcome: "Clc1ccc(CNc2ccccn2)cc1"
no (0)

For this compound, state the assay outcome: "CCc1cccc(NC(=O)c2cc3c(s2)-c2ccccc2OC3)c1"
no (0)

For this compound, state the assay outcome: "CCc1nnc(NC(=O)CSc2nccn2-c2ccc(OC)cc2)s1"
no (0)

For this compound, state the assay outcome: "Cc1ccc(CNC(=O)CCCc2nnc3n(C)c(=O)c4sccc4n23)cc1"
no (0)

====

survival by entry:
Tested on: Wild type
Assay: S. aureus survival, RN4220 and DeltatarO strains – OD600, teichoic acid synthesis inhibitors, primary screen (AID 463173)
Conditions: S. aureus RN4220 wild type/DeltatarO growth, OD600, 18 h, hits give low values, screened at 18.75 µg/mL (by protocol)
Out of some 52,000 compounds screened, about 1,700 (3.3%) were called active. For the sample, actives were picked, then their nearest neighbours and some compounds at random.
Could you give me the number in %? Just the number is fine.

For "CCCCOc1ccc(Cn2c(=O)oc3ccccc32)cc1" , write its survival.
113

For "CCN(CC)c1cc(C)c2cc(NC(=O)/C=C/c3ccc(C)cc3)ccc2n1" , write its survival.
68

For "CCOc1ccc(CNC(=O)CS(=O)(=O)c2cccc3nsnc23)cc1" , write its survival.
126

For "CCCOc1ccc(Cn2c(=O)sc3ccccc32)cc1" , write its survival.
-4

For "COc1ccc(NC(=O)c2oc3ccc(S(=O)(=O)N4CCCCC4)cc3c2C)cc1Cl" , write its survival.
73

For "O=c1sc2ccccc2n1CCCOc1ccccc1" , write its survival.
116
